Known shrunken log2 fold change of a selection of sequences
- Test system: Escherichia coli TOP10
- Assay method text: shrunken log2 fold change of peptide-encoding DNA abundance (4.5 h post-induction vs induction); higher = less antimicrobial activity (less host growth inhibition)
- Condition details: time post-induction: 4.5 h; library: site-saturation at positions 5, 18, 19, 20
Number only, no unit.

Solved entries (count: 10):
{"columns": ["Sequence chain", "Assayed system", "Reported endpoint", "Experimental result"],
 "data": [
  ["RRIRLRPPRLPRPRPRPFWYPRP", "Escherichia coli TOP10", "shrunken log2 fold change", -0.0126],
  ["RRIRSRPPRLPRPRPRPTIKPRP", "Escherichia coli TOP10", "shrunken log2 fold change", -0.29],
  ["RRIRHRPPRLPRPRPRPCTEPRP", "Escherichia coli TOP10", "shrunken log2 fold change", -0.138],
  ["RRIRVRPPRLPRPRPRPLIIPRP", "Escherichia coli TOP10", "shrunken log2 fold change", -0.445],
  ["RRIRKRPPRLPRPRPRPCAFPRP", "Escherichia coli TOP10", "shrunken log2 fold change", 0.0922],
  ["RRIRGRPPRLPRPRPRPFPYPRP", "Escherichia coli TOP10", "shrunken log2 fold change", -0.334],
  ["RRIRWRPPRLPRPRPRPNTTPRP", "Escherichia coli TOP10", "shrunken log2 fold change", -0.418],
  ["RRIRHRPPRLPRPRPRPNWLPRP", "Escherichia coli TOP10", "shrunken log2 fold change", -0.165],
  ["RRIRKRPPRLPRPRPRPQIVPRP", "Escherichia coli TOP10", "shrunken log2 fold change", 0.119],
  ["RRIRERPPRLPRPRPRPTPIPRP", "Escherichia coli TOP10", "shrunken log2 fold change", 0.244]
]}

## Input Using known records, supply shrunken log2 fold change for RRIRFRPPRLPRPRPRPIGGPRP
## Output 0.14

## Input Using known records, supply shrunken log2 fold change for RRIRLRPPRLPRPRPRPLLQPRP
## Output 0.138

* * *

- System: Escherichia coli TOP10
- Assay method text: shrunken log2 fold change of peptide-encoding DNA abundance (4.5 h post-induction vs induction); higher = less antimicrobial activity (less host growth inhibition)
- Condition details: time post-induction: 4.5 h; library: site-saturation at positions 5, 18, 19, 20
Reported endpoint: shrunken log2 fold change
Number only, no unit.

{"columns": ["Sequence chain", "Experimental result"],
 "data": [
  ["RRIRHRPPRLPRPRPRPMWGPRP", -0.234],
  ["RRIRDRPPRLPRPRPRPQISPRP", 0.141],
  ["RRIRCRPPRLPRPRPRPLRRPRP", 0.519],
  ["RRIRWRPPRLPRPRPRPQYLPRP", -0.12],
  ["RRIRIRPPRLPRPRPRPVGEPRP", -0.0964],
  ["RRIRRRPPRLPRPRPRPGIGPRP", -0.00887],
  ["RRIRNRPPRLPRPRPRPCSYPRP", -0.212]
]}

Next:
## Input Using known records, supply shrunken log2 fold change for RRIRHRPPRLPRPRPRPMWYPRP
## Output -0.0997

* * *

Known shrunken log2 fold change of a selection of sequences
- Tested on: Escherichia coli TOP10
- Assay method text: shrunken log2 fold change of peptide-encoding DNA abundance (4.5 h post-induction vs induction); higher = less antimicrobial activity (less host growth inhibition)
- Condition details: time post-induction: 4.5 h; library: site-saturation at positions 5, 18, 19, 20
Number only, no unit.

{"columns": ["Sequence chain", "shrunken log2 fold change"],
 "data": [
  ["RRIRPRPPRLPRPRPRPTAQPRP", 0.357],
  ["RRIRNRPPRLPRPRPRPTNWPRP", 0.31],
  ["RRIRCRPPRLPRPRPRPVVWPRP", 0.354],
  ["RRIRERPPRLPRPRPRPTPCPRP", 0.0922],
  ["RRIRSRPPRLPRPRPRPGDGPRP", 0.78],
  ["RRIRNRPPRLPRPRPRPQINPRP", -0.181]
]}

Next:
## Input Using known records, supply shrunken log2 fold change for RRIRQRPPRLPRPRPRPILHPRP
## Output -1.25

* * *

- Tested on: Escherichia coli TOP10
- Assay method text: shrunken log2 fold change of peptide-encoding DNA abundance (4.5 h post-induction vs induction); higher = less antimicrobial activity (less host growth inhibition)
- Condition details: time post-induction: 4.5 h; library: site-saturation at positions 5, 18, 19, 20
Give Criterion met when the value for shrunken log2 fold change is at least -0.09. Give Criterion not met when it is less.

Previously resolved entries follow.
{"columns": ["Sequence chain", "Group label"],
 "data": [
  ["RRIRNRPPRLPRPRPRPIGAPRP", "Criterion met"],
  ["RRIRYRPPRLPRPRPRPYHMPRP", "Criterion met"],
  ["RRIRMRPPRLPRPRPRPSRSPRP", "Criterion met"],
  ["RRIRTRPPRLPRPRPRPHWSPRP", "Criterion not met"],
  ["RRIRSRPPRLPRPRPRPVGPPRP", "Criterion met"],
  ["RRIRERPPRLPRPRPRPLRDPRP", "Criterion met"]
]}

## Input Has RRIRMRPPRLPRPRPRPNNFPRP a recorded shrunken log2 fold change greater than or equal to -0.09?
## Output Criterion not met

## Input Has RRIRMRPPRLPRPRPRPCDMPRP a recorded shrunken log2 fold change greater than or equal to -0.09?
## Output Criterion met

## Input Has RRIRNRPPRLPRPRPRPVVLPRP a recorded shrunken log2 fold change greater than or equal to -0.09?
## Output Criterion not met

## Input Has RRIRTRPPRLPRPRPRPYTLPRP a recorded shrunken log2 fold change greater than or equal to -0.09?
## Output Criterion met

## Input Has RRIRIRPPRLPRPRPRPCYMPRP a recorded shrunken log2 fold change greater than or equal to -0.09?
## Output Criterion not met

## Input Has RRIRDRPPRLPRPRPRPCCNPRP a recorded shrunken log2 fold change greater than or equal to -0.09?
## Output Criterion met

## Input Has RRIRERPPRLPRPRPRPVICPRP a recorded shrunken log2 fold change greater than or equal to -0.09?
## Output Criterion not met

## Input Has RRIRRRPPRLPRPRPRPYTWPRP a recorded shrunken log2 fold change greater than or equal to -0.09?
## Output Criterion not met

* * *

- Test system: Escherichia coli TOP10
- Assay method text: shrunken log2 fold change of peptide-encoding DNA abundance (4.5 h post-induction vs induction); higher = less antimicrobial activity (less host growth inhibition)
- Condition details: time post-induction: 4.5 h; library: site-saturation at positions 5, 18, 19, 20
Give True when the value for shrunken log2 fold change is at least -0.01. Give False when it is less.

Previously resolved entries follow.
{"columns": ["Sequence chain", "Assayed system", "Group label"],
 "data": [
  ["RRIRMRPPRLPRPRPRPVIAPRP", "Escherichia coli TOP10", "True"],
  ["RRIRWRPPRLPRPRPRPKGCPRP", "Escherichia coli TOP10", "True"],
  ["RRIRGRPPRLPRPRPRPKPQPRP", "Escherichia coli TOP10", "True"],
  ["RRIRARPPRLPRPRPRPTKVPRP", "Escherichia coli TOP10", "True"],
  ["RRIRVRPPRLPRPRPRPMCDPRP", "Escherichia coli TOP10", "False"]
]}

## Input Has RRIRYRPPRLPRPRPRPWMTPRP a recorded shrunken log2 fold change greater than or equal to -0.01?
## Output False

## Input Has RRIRSRPPRLPRPRPRPFSEPRP a recorded shrunken log2 fold change greater than or equal to -0.01?
## Output True

## Input Has RRIRRRPPRLPRPRPRPASTPRP a recorded shrunken log2 fold change greater than or equal to -0.01?
## Output False

## Input Has RRIRIRPPRLPRPRPRPIQFPRP a recorded shrunken log2 fold change greater than or equal to -0.01?
## Output False

## Input Has RRIRSRPPRLPRPRPRPNSEPRP a recorded shrunken log2 fold change greater than or equal to -0.01?
## Output False

## Input Has RRIRWRPPRLPRPRPRPHHFPRP a recorded shrunken log2 fold change greater than or equal to -0.01?
## Output False

* * *

- Test system: Escherichia coli TOP10;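 note: peptides expressed intracellularly from a pBAD plasmid library in pooled LB shake-flask culture, induced with 0.3% L-arabinose, DNA abundance read by NGS, three biological replicates, DESeq2 with apeglm shrinkage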
- Assay method text: shrunken log2 fold change of peptide-encoding DNA abundance (4.5 h post-induction vs induction); higher = less antimicrobial activity (less host growth inhibition)
- Condition details: time post-induction: 4.5 h; library: site-saturation at positions 5, 18, 19, 20
Reported endpoint: shrunken log2 fold change
Number only, no unit.

Solved entries (count: 5):
{"columns": ["Sequence chain", "Reported endpoint", "Experimental result"],
 "data": [
  ["RRIRNRPPRLPRPRPRPCIKPRP", "shrunken log2 fold change", -0.207],
  ["RRIRGRPPRLPRPRPRPFFAPRP", "shrunken log2 fold change", 0.747],
  ["RRIRQRPPRLPRPRPRPRIVPRP", "shrunken log2 fold change", 0.01],
  ["RRIRPRPPRLPRPRPRPIVMPRP", "shrunken log2 fold change", -0.445],
  ["RRIRQRPPRLPRPRPRPNTIPRP", "shrunken log2 fold change", 0.0518]
]}

## Input Using known records, supply shrunken log2 fold change for RRIRKRPPRLPRPRPRPPNFPRP
## Output 0.0909

## Input Using known records, supply shrunken log2 fold change for RRIRHRPPRLPRPRPRPIVIPRP
## Output -0.158

## Input Using known records, supply shrunken log2 fold change for RRIRARPPRLPRPRPRPCIQPRP
## Output 0.151

## Input Using known records, supply shrunken log2 fold change for RRIRLRPPRLPRPRPRPDHFPRP
## Output 0.0304

## Input Using known records, supply shrunken log2 fold change for RRIRKRPPRLPRPRPRPDKRPRP
## Output -0.0063

## Input Using known records, supply shrunken log2 fold change for RRIRRRPPRLPRPRPRPWQIPRP
## Output 0.0297

## Input Using known records, supply shrunken log2 fold change for RRIRVRPPRLPRPRPRPRAPPRP
## Output 0.831

## Input Using known records, supply shrunken log2 fold change for RRIRTRPPRLPRPRPRPDLSPRP
## Output 0.057

## Input Using known records, supply shrunken log2 fold change for RRIRPRPPRLPRPRPRPAPHPRP
## Output 0.402

## Input Using known records, supply shrunken log2 fold change for RRIRSRPPRLPRPRPRPAHMPRP
## Output -0.138
